All values here come from paper PMC7088854.

system: T1, Myc-DC-SIGNR (UniProt Q9H2X3 1-399)
T1 sequence (looked up): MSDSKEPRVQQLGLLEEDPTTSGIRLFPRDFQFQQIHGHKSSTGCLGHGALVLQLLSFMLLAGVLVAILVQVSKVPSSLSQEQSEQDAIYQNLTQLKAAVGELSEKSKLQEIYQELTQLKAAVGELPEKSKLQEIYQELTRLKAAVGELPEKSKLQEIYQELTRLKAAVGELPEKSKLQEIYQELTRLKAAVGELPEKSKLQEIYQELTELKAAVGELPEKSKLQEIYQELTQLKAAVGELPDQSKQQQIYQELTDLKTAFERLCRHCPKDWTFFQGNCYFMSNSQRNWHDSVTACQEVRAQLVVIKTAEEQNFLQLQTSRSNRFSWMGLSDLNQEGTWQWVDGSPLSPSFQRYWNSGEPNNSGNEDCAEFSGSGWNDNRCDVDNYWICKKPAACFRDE
experimental.details: co-IP
Each item that follows carries a reported co-precipitated amount relative to wild-type LSECtin (onefold).
measured.attribute: co-precipitated amount relative to wild-type LSECtin (onefold)

>>> result("Flag-LSECtin M2 (N159A) (receptor, UniProt Q6UXB4 1-293, looked up) MDTTRYSKWGGSSEEVPGGPWGRWVHWSRRPLFLALAVLVTTVLWAVILSILLSKASTERAALLDGHDLLRTNASKQTAALGALKEEVGDCHSCCSGTQAQLQTTRAELGEAQAKLMEQESALRELRERVTQGLAEAGRGREDVRTELFRALEAVRLQANSCEPCPTSWLSFEGSCYFFSVPKTTWAAAQDHCADASAHLVIVGGLDEQGFLTRNTRGRGYWLGLRAVRHLGKVQGYQWVDGVSLSFSHWNQGEPNDAWGRENCVMMLHTGLWNDAPCDSEKDGWICEKRHNC")
"1.5 fold of wild type"
>>> result("Flag-LSECtin D1 (deletion of the potential endocytic motif) (receptor, UniProt Q6UXB4 1-293, looked up) MDTTRGGSSEEVPGGPWGRWVHWSRRPLFLALAVLVTTVLWAVILSILLSKASTERAALLDGHDLLRTNASKQTAALGALKEEVGDCHSCCSGTQAQLQTTRAELGEAQAKLMEQESALRELRERVTQGLAEAGRGREDVRTELFRALEAVRLQNNSCEPCPTSWLSFEGSCYFFSVPKTTWAAAQDHCADASAHLVIVGGLDEQGFLTRNTRGRGYWLGLRAVRHLGKVQGYQWVDGVSLSFSHWNQGEPNDAWGRENCVMMLHTGLWNDAPCDSEKDGWICEKRHNC")
"1.2 fold of wild type"
>>> result("Flag-LSECtin M1 (N73A) (receptor, UniProt Q6UXB4 1-293, looked up) MDTTRYSKWGGSSEEVPGGPWGRWVHWSRRPLFLALAVLVTTVLWAVILSILLSKASTERAALLDGHDLLRTAASKQTAALGALKEEVGDCHSCCSGTQAQLQTTRAELGEAQAKLMEQESALRELRERVTQGLAEAGRGREDVRTELFRALEAVRLQNNSCEPCPTSWLSFEGSCYFFSVPKTTWAAAQDHCADASAHLVIVGGLDEQGFLTRNTRGRGYWLGLRAVRHLGKVQGYQWVDGVSLSFSHWNQGEPNDAWGRENCVMMLHTGLWNDAPCDSEKDGWICEKRHNC")
"0.8 fold of wild type"
>>> result("Flag-LSECtin D3 (deficiency of the CRD/CTLD domain) (domain or fragment, UniProt Q6UXB4 1-162, looked up) MDTTRYSKWGGSSEEVPGGPWGRWVHWSRRPLFLALAVLVTTVLWAVILSILLSKASTERAALLDGHDLLRTNASKQTAALGALKEEVGDCHSCCSGTQAQLQTTRAELGEAQAKLMEQESALRELRERVTQGLAEAGRGREDVRTELFRALEAVRLQNNSC")
"0.8 fold of wild type"
